- assayed target: Inhibitor of nuclear factor kappa-B kinase subunit beta (Homo sapiens)
- Sequence (O14920 whole entry): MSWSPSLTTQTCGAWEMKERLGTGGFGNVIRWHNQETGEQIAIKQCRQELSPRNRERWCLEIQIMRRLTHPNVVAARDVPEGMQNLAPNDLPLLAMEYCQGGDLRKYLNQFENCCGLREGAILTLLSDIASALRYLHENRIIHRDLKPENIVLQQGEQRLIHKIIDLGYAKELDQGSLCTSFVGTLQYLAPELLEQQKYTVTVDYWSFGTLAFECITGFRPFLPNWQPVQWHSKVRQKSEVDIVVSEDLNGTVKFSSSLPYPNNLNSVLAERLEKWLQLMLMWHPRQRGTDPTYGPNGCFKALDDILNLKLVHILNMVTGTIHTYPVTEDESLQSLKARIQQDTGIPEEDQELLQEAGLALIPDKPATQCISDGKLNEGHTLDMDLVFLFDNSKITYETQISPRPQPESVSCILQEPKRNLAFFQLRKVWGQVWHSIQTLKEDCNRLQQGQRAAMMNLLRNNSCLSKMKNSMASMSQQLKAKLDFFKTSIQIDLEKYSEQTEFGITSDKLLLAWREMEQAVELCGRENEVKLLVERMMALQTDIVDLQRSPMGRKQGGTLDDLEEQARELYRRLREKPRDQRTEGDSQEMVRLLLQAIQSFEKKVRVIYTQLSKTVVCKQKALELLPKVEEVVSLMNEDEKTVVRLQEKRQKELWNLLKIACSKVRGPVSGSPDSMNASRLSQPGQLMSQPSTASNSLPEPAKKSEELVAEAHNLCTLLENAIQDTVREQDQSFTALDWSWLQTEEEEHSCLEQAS
- test name: Inhibition of IKKbeta (unknown origin) using FAM-P22 as substrate preincubated for 10 mins followed by substrate addition and measured after 1 hr by mobility shift assay
In this section we review reported IC50 values for a set of compounds.

O=C1/C(=C/c2c(F)cccc2F)CNC/C1=C\c1c(F)cccc1F	14 µM

Now examine the next entry.
Name the recorded IC50 for "O=C1/C(=C/c2ccccc2F)COC/C1=C\c1ccccc1F" .
19.6 µM

---

- Tested on: HeLa 229
- test name: Antiproliferative activity against human HeLa 229 cells after 72 hrs by MTT assay
- Format: functional, cell-based
- applied conditions: HeLa 229, 72 h
Quick reference: IC50 of the listed items.
Kindly provide the numeric value in nM only, without the unit symbol.

Cc1ccc2nc(NCCN)c3ncc(C)n3c2c1.Cl	9400

So what's the measured IC50 for this one? "O=C1/C(=C/c2ccccc2F)CNC/C1=C\c1ccccc1F"
1900

Need IC50 of "O=C1/C(=C/c2ccccc2Br)CNC/C1=C\c1ccccc1Br" , thanks.
1800

Each recorded value in this set is attributed to ChEMBL document CHEMBL4145489.
